# protocol_summary: Solubility test (artificial intestinal juice pH 6.8, 1% DMSO)
# Format: physicochemical
# measurement_setup: artificial intestinal juice pH 6.8 with 1% DMSO, fassgf or other biorelevant, kinetic from dmso stock, 25° C.
parameter: solubility at 16 h (µM)
One number for each entry, in µM.

Consider the worked cases shown below.
compound: COc1cc(N2CCc3nc(NC(=O)Nc4ccccc4C(=O)N(C)C(C)C)sc3C2)nc(OC)n1
measurement_unit: µM
val: 15.4

compound: CC(C)NC(=O)c1ccccc1NC(=O)Nc1nc2c(s1)CN(c1cccc(S(C)(=O)=O)c1)CC2
measurement_unit: µM
val: 10.1

compound: CC(CO)NC(=O)c1ccccc1NC(=O)Nc1nc2c(s1)CN(c1ccc(F)cn1)CC2 (stereo not shown)
measurement_unit: µM
val: 17.5

Let's switch to this compound now.
[Q] Sample COc1cc(N2CCc3nc(NC(=O)Nc4ccccc4OCCC(C)(C)C(=O)O)sc3C2)nc(OC)n1 — what was its solubility at 16 h?
[A] 34.4

----------
# system_under_test: PI3Kγ (Homo sapiens, UniProt P48736)
# Sequence (P48736 whole entry, species assumed): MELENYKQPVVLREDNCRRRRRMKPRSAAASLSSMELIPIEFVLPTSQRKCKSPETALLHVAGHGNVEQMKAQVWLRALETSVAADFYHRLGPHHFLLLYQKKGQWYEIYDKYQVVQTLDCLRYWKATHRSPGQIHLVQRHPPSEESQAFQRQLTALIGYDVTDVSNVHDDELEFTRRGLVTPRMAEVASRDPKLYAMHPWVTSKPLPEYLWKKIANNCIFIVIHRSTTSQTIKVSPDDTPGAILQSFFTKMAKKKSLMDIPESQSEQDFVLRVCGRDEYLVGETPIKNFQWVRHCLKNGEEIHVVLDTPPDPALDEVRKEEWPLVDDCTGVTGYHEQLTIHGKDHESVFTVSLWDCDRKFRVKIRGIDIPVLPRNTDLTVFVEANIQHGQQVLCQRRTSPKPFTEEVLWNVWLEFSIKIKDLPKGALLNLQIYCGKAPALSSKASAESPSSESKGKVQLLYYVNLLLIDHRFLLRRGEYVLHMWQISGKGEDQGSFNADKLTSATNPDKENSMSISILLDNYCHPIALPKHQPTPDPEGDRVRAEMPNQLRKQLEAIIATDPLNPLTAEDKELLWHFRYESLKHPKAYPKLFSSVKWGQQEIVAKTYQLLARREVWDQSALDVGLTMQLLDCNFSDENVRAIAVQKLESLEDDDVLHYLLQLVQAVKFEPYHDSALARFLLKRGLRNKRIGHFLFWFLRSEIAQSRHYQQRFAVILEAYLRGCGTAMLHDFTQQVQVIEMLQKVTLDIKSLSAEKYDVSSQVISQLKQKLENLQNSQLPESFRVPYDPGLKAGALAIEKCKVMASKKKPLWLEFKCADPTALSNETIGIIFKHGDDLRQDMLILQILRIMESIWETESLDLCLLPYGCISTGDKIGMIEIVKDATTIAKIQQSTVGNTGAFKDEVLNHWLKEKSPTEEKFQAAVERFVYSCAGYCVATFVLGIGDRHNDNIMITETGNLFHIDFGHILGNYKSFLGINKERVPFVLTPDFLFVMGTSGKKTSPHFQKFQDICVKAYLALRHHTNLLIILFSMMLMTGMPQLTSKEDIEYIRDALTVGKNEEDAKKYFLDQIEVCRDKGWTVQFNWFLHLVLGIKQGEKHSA
# protocol_summary: PI3Kγ inhibitory activity (PI3-kinase HTRF assay, inhibition ratio)
# Format: biochemical
# measurement_setup: 0.5 h, compound at 10 μmol/L; read-out: PI3Kg Inhibition Ratio % (10 μM)
parameter: inhibition at 10 µM

Consider the worked cases shown below.
compound: COc1cc(N2CCc3nc(NC(=O)Nc4ccccc4C(=O)NC4CCOC4)sc3C2)nc(OC)n1 (stereo not drawn)
inhibition at 10 µM: ≥ 95%

compound: CC(C)NC(=O)c1ccccc1NC(=O)Nc1nc2c(s1)CN(c1cnc(N)c(C(F)(F)F)c1)CC2
inhibition at 10 µM: ≥ 95%

compound: COC(=O)C(C)(C)NC(=O)c1ccccc1NC(=O)Nc1nc2c(s1)CN(c1cc(OC)nc(OC)n1)CC2
inhibition at 10 µM: ≥ 95%

Quick batch: inhibition at 10 µM for everything below.
1. COC(=O)c1ccncc1NC(=O)Nc1nc2c(s1)CN(c1cc(OC)nc(OC)n1)CC2
2. COc1cc(N2CCc3nc(NC(=O)Nc4ccccc4C(=O)NC4CCOCC4)sc3C2)nc(OC)n1
3. COc1cc(N2CCc3nc(NC(=O)Nc4ccsc4C(=O)NC(C)(C)C)sc3C2)nc(OC)n1
4. COc1cc(N2CCc3nc(NC(=O)Nc4ccccc4C(=O)NC(C)C(O)C(F)(F)F)sc3C2)nc(OC)n1 (stereo not drawn)
5. COCCNC(=O)c1ccccc1NC(=O)Nc1nc2c(s1)CN(c1cc(OC)nc(OC)n1)CC2
6. COc1cc(N2CCc3nc(NC(=O)NC4=C(C(=O)NC(C)C)CCC4)sc3C2)nc(OC)n1
7. CC(C)NC(=O)c1ccccc1NC(=O)Nc1nc2c(s1)CN(c1cncc(S(C)(=O)=O)c1)CC2
8. COc1cc(N2CCc3nc(NC(=O)Nc4ccccc4NC(=O)C(C)(C)C)sc3C2)nc(OC)n1

[A]
1: 74%; 2: 91%; 3: ≥ 95%; 4: ≥ 95%; 5: ≥ 95%; 6: ≥ 95%; 7: ≥ 95%; 8: ≥ 95%

----------
Give measured inhibition at 10 µM for each item. Keep answers brief.
# system_under_test: PI3Kγ (Homo sapiens)
# protocol_summary: PI3Kγ inhibitory activity (PI3-kinase HTRF assay, inhibition ratio)
# Assay type: biochemical
# measurement_setup: 0.5 h, compound at 10 μmol/L; read-out: PI3Kg Inhibition Ratio % (10 μM)

molecule: COc1cc(N2CCc3nc(NC(=O)Nc4ccccc4C(=O)NC(C)(C)CO)sc3C2)nc(OC)n1
inhibition at 10 µM: 94%
--
molecule: COc1cc(N2CCc3nc(NC(=O)Nc4ccccc4C(=O)NC(C)(C)C)sc3C2)nc(OC)n1
inhibition at 10 µM: 93%
--
molecule: COc1cc(N2CCc3nc(NC(=O)Nc4ccccc4C(=O)NC(C)(C)C(=O)O)sc3C2)nc(OC)n1
inhibition at 10 µM: ≥ 95%

Quick batch: inhibition at 10 µM for everything below.
1. CC(CO)NC(=O)c1ccccc1NC(=O)Nc1nc2c(s1)CN(c1ccnc(F)c1)CC2 (stereo not drawn)
2. COc1cc(N2CCc3nc(NC(=O)Nc4ccccc4C(=O)N[C@H](C)CO)sc3C2)nc(OC)n1

[A]
1: ≥ 95%; 2: ≥ 95%

Quick batch: inhibition at 10 µM for everything below.
1. CC(C)NC(=O)c1ccccc1NC(=O)Nc1nc2c(s1)CN(c1cc[nH]c(=O)c1)CC2
2. COc1ccc(-c2cc(NC(=O)Nc3ccccc3C(=O)NC(C)C)nn2C)cn1
3. Cc1cc(N2CCc3nc(NC(=O)Nc4ccccc4C(=O)N[C@H](C)CO)sc3C2)nc(Cl)n1
4. COc1cc(N2CCc3nc(NC(=O)Nc4ccccc4C(=O)N(C)C(C)(C)C)sc3C2)nc(OC)n1
5. COc1cc(N2CCc3nc(NC(=O)Nc4ccccc4C(=O)NCC(C)O)sc3C2)nc(OC)n1 (stereo not drawn)
6. C[C@@H](CO)NC(=O)c1ccccc1NC(=O)Nc1nc2c(s1)CN(c1cncc(S(C)(=O)=O)c1)CC2
7. COc1nc(Cl)cc(N2CCc3nc(NC(=O)Nc4ccccc4C(=O)NC4CCCC4O)sc3C2)n1 (stereo not drawn)

[A]
≥ 95%
88%
≥ 95%
94%
87%
87%
≥ 95%

----------
# protocol_summary: Metabolic stability test (pooled human liver microsome)
# Type: in vitro ADME
# measurement_setup: percentage of test compound remained after 30 minutes, pooled human liver microsome 0.5 mg protein/mL, 1 mmol/L NADPH, 37° C., compound 0.5 μM
Give measured hLMS_ox(at 0.5 μM) % for each item. Keep answers brief.
The reply should read as a number followed by its unit.

compound: C[C@@H](CO)NC(=O)c1ccccc1NC(=O)Nc1nc2c(s1)CN(c1cc[nH]c(=O)c1)CC2
hLMS_ox(at 0.5 μM) %: 109%
--
compound: COc1cc(N2CCc3nc(NC(=O)Nc4cn(C)nc4C(=O)NC(CO)CO)sc3C2)nc(OC)n1
hLMS_ox(at 0.5 μM) %: 91.6%
--
compound: COc1cc(N2CCc3nc(NC(=O)Nc4ccccc4C(N)=O)sc3C2)nc(OC)n1
hLMS_ox(at 0.5 μM) %: 101%
--
compound: COc1cc(N2CCc3nc(NC(=O)Nc4ccccc4C(=O)NN4CCN(C)CC4)sc3C2)nc(OC)n1
hLMS_ox(at 0.5 μM) %: 110%
--
compound: COc1cc(N2CCc3nc(NC(=O)Nc4ccccc4C(=O)NC(C)C)sc3C2)cnc1OC
hLMS_ox(at 0.5 μM) %: 82.1%

Quick batch: hLMS_ox(at 0.5 μM) % for everything below.
1. COc1ccc(N2CCc3nc(NC(=O)Nc4ccccc4C(=O)NC(C)CO)sc3C2)cc1OC (stereo not drawn)
2. CNC(=O)c1ccccc1NC(=O)Nc1nc2c(s1)CN(c1cc(OC)nc(OC)n1)CC2
3. COc1cc(N2CCc3nc(NC(=O)Nc4ccccc4C(=O)NCC(C)O)sc3C2)nc(OC)n1 (stereo not drawn)
4. COc1cc(N2CCc3nc(NC(=O)Nc4ccccc4C(=O)NC(C)C(O)C(F)(F)F)sc3C2)nc(OC)n1 (stereo not drawn) [Compound I-138]

[A]
1. 98%
2. 95.5%
3. 96.2%
4. 82.6%

----------
# System: CYP1A2, CYP2C9, CYP2C19, CYP2D6 and CYP3A4 (one value for the five species)
# protocol_summary: CYP inhibition test, five CYP species together (5CYPs_IC50; pooled human liver microsome)
# Assay type: in vitro ADME
# measurement_setup: human, microsomes
parameter: IC50 at 15 min

compound: CC(C)NC(=O)c1ccccc1NC(=O)Nc1nc2c(s1)CN(c1cncc(C#N)c1)CC2
system_under_test: CYP1A2, CYP2C9, CYP2C19, CYP2D6 and CYP3A4 (one value for the five species)
val: > 20 µM

Quick batch: IC50 at 15 min for everything below.
1. COc1cc(N2CCc3nc(NC(=O)Nc4ccccc4C(O)CCC(C)C)sc3C2)nc(OC)n1 (centres unmarked)
2. CCOC(=O)[C@H]1CCC[C@H]1NC(=O)Nc1nc2c(s1)CN(c1cc(OC)nc(OC)n1)CC2
3. CC(C)NC(=O)c1ccccc1NC(=O)Nc1nc2c(s1)CN(c1cccc(S(C)(=O)=O)c1)CC2

[A]
["> 20 µM", "> 20 µM", "> 20 µM"]

Quick batch: IC50 at 15 min for everything below.
1. COc1nc(Cl)cc(N2CCc3nc(NC(=O)Nc4cnccc4C(=O)NC(C)C)sc3C2)n1
2. COc1ccc(N2CCc3nc(NC(=O)Nc4ccccc4C(=O)NC(C)C)sc3C2)cn1
3. Cc1cc(N2CCc3nc(NC(=O)Nc4ccccc4C(=O)NCC#N)sc3C2)nc(Cl)n1
4. CC(C)NC(=O)c1ccccc1NC(=O)Nc1nc2c(s1)CN(c1cnc(N)c(C(F)(F)F)c1)CC2

[A]
["≥ 10 µM", "≥ 10 µM", "≥ 10 µM", "≥ 10 µM"]
